The origin of these recorded values is patent US20210070843A1.

# tested_target: cell surface-expressed H3N2 WN/05 HA trimer (influenza A virus A/Wisconsin/67/2005 (H3N2))
# protocol: cell-based or functional assay
value_type: IC50 of pseudo virus neutralization H3N2 WN/05

- binder: "S06 (antibody, V domains shown) VH: EVQLVESGGGLVQPGGSLRLSCAASGFTIGGGWIHWVRQAPGKGLEWVAFIGPYGGSTFYADSVKGRFTISADTSKNTAYLQMNSLRAEDTAVYYCARFNFGFWNHMDYWGQGTLVTVSS VL: DIQMTQSPSSLSASVGDRVTITCRASQDVSSWVAWYQQKPGKAPKLLIYGTTFLHSGVPSRFSGSGSGTDFTLTISSLQPEDFATYYCQQYYNGPLTFGQGTKVEIKR"
  measurement: "> 20 µg/mL"
- binder: "S45 (antibody, V domains shown) VH: EVQLVESGGGLVQPGGSLRLSCAASGFTINGSSIHWVRQAPGKGLEWVAYIGPFGGSTYYADSVKGRFTISADTSKNTAYLQMNSLRAEDTAVYYCARFWHGYNLYMDYWGQGTLVTVSS VL: DIQMTQSPSSLSASVGDRVTITCRASQDVGWWVAWYQQKPGKAPKLLIYGARFLYSGVPSRFSGSGSGTDFTLTISSLQPEDFATYYCQQYFNGPLTFGQGTKVEIKR"
  measurement: "> 20 µg/mL"
- binder: "S48 (antibody, V domains shown) VH: EVQLVESGGGLVQPGGSLRLSCAVSGFTIGDGSIHWVRQAPGKGLEWVASIGPYGGSTYYADSVKGRFTISADTSKNTAYLQMNSLRAEDTAVYYCARFHYGYWNNMDYWGQGTLVTVSS VL: DIQMTQSPSSLSASVGDRVTITCRASQDVGWWVAWYQQKPGKAPKLLIYGTRWLYSGVPSRFSGSGSGTDFTLTISSVQPEDFATYYCQQYYSGPITFGQGTKVEIKR"
  measurement: "> 20 µg/mL"
